Readings of dilution unit (maximum dilution which produces abnormal branching) for the listed compounds
system: Pellicularia sasakii; test: Abnormal branching of hyphal tips of Pellicularia sasakii (agar dilution bioassay); type: cell-based; details: aqueous solution containing 1000 γ/ml.; 27° C for 40 hours
measured quantity: dilution unit (maximum dilution which produces abnormal branching) (dilution unit/ml.)

compound: OCC1=CC(NC2CC(CO)C(O)C(O)C2O)C(O)C(O)C1O (centres unmarked) [Validoxylamine A]
quantitative result: 100

compound: OCC1=C[C@H](NC2C(O)C(O)C(O)C(CO)C2O)[C@H](O)[C@@H](O)[C@@H]1O (some centres unmarked) [Validoxylamine B]
quantitative result: 10

compound: OCC1=C[C@H](N[C@H]2C[C@H](CO)[C@@H](O[C@@H]3O[C@@H](CO)[C@@H](O[C@H]4O[C@@H](CO)[C@@H](O)[C@H](O)[C@H]4O)[C@H](O)[C@H]3O)[C@@H](O)[C@H]2O)[C@@H](O)[C@H](O)[C@H]1O [Validamycin E]
quantitative result: 80000

compound: OCC1=C[C@@H](N[C@@H]2C[C@@H](CO[C@@H]3O[C@H](CO)[C@@H](O)[C@H](O)[C@H]3O)[C@H](O)[C@@H](O)[C@H]2O)[C@H](O)[C@H](O)[C@H]1O [Validamycin D]
quantitative result: 10

compound: OCC1CC(NC2C=C(COC3OC(CO)C(O)C(O)C3O)C(O)C(O)C2O)C(O)C(O)C1OC1OC(CO)C(O)C(O)C1O (centres unmarked) [Validamycin C]
quantitative result: 100
